molecular target: human serum albumin (HSA) (Homo sapiens); conditions: Nap-dU at n (6) positions [4,9,13,19,26,27,28,30,39]; ELISA, SB18, 37 C
REPORTED ENDPOINT: pKd
Give bare numbers, as −log10 of the molar value.

QUERY: // fetch pKd given entry GACTAGCATAAGTCCGGATGGCAGCTTTATGCCGACCAT [AD005]
RESULT: 6.91

----------
tested on: KRAS G12D G12D, P01116-2; settings: Nap-dU at n (6) positions [18,20,22,32,33,34,35,36,44,45,47,53,57 (Nap-dU)]; ELISA, SB18, 37 C
REPORTED ENDPOINT: Kd (nM)
Answers are plain numbers, in nM.

QUERY: // fetch Kd given entry GAGTGACCGTCTGCCTGTGTCTGAGGGACCCTTTTTAAGGGCATTATCAGCATGCCTCACACAGCCACACCACCAGCC [AD002]
RESULT: 0.55

----------
test system: KRAS G12D G12D, P01116-2; settings: Nap-dU at n (6) positions [5,11,13,19,21,23,28,36,38,42-45,52,54]; ELISA, SB18, 37 C
REPORTED ENDPOINT: Kd (nM)
Numbers only, in nM.

QUERY: // fetch Kd given entry CAGGTCGAGCTGTACGCGTGTGTGACCTGAAGACGTATAACTTTTACAGAATCTACA [AD032]
RESULT: 15.5

----------
biological target: transferrin (TF) (Homo sapiens) (UniProt P02787); conditions: Nap-dU at n (6) positions; ELISA, SB18, 37 C
Sequence (P02787 20-698): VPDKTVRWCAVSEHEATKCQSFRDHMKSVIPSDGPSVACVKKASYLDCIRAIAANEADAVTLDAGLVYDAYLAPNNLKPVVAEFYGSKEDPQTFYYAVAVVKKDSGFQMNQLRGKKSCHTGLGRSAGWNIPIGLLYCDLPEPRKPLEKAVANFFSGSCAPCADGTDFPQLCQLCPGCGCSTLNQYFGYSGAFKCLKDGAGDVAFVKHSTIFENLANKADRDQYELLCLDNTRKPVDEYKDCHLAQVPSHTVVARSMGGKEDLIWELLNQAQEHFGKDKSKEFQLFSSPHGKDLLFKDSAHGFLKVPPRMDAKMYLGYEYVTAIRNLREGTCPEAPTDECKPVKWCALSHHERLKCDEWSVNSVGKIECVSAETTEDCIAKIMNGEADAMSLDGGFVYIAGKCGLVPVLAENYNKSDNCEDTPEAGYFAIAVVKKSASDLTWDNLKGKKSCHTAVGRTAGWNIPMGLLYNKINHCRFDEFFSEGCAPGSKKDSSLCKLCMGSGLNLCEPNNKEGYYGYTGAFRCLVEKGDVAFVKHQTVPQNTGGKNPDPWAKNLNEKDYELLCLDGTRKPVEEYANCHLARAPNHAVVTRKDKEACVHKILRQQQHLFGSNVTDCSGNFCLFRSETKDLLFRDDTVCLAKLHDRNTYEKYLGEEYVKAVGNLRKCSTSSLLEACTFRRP
REPORTED ENDPOINT: Kd (nM)
Answers are plain numbers, in nM.

QUERY: // fetch Kd given entry CAGGNCGAGCNGNACGCGNGNGNGACCNGAAGAC [TD013]
RESULT: 646

----------
target: transferrin (TF) (Homo sapiens) (UniProt P02787); details: Nap-dU at n (6) positions [17,23,30,31,32,44]; ELISA, SB18, 37 C
REPORTED ENDPOINT: pKd
One number for each entry, as −log10 of the molar value.

QUERY: // fetch pKd given entry ACCGTCTGCCTGAAAGTCCGGATGGCAGCTTTACAGGCAGAACTAACG [TD007]
RESULT: 6.37

----------
biological target: human serum albumin (HSA) (Homo sapiens); details: Nap-dU at n (6) positions [4,9,13,19,26,27,28,30]; ELISA, SB18, 37 C
REPORTED ENDPOINT: Kd (nM)
One number for each entry, in nM.

QUERY: // fetch Kd given entry GACTAGCATAAGTCCGGATGGCAGCTTTATGCCG [AD006]
RESULT: 939

----------
test system: KRAS G12D G12D, P01116-2; conditions: Nap-dU at n (6) positions; ELISA, SB18, 37 C
REPORTED ENDPOINT: Kd (nM)
One number for each entry, in nM.

QUERY: // fetch Kd given entry CAGGNCGAGCNGNACGCGNGNGNGACCNGAAGAC [TD013]
RESULT: 1550

----------
target: human serum albumin (HSA) (Homo sapiens) (UniProt P02768); details: Nap-dU at n (6) positions [1,6,7,8,14,16,18,20]; ELISA, SB18, 37 C
REPORTED ENDPOINT: pKd
Give bare numbers, as −log10 of the molar value.

INSERT INTO measurements (seq_text, data_value) VALUES
  ('TCGCCTTTACAACTATATCTGACGAAC [AB006]', 6.56);

QUERY: // fetch pKd given entry TCGCCTTTACAACTATATCTGACGA [AB007]
RESULT: 6.73
